Experiment Description: yeast display, Sf9 membrane polyspecificity reagent, FACS + sequencing; frameworks hold sequencing errors
Readout Type: polyreactivity (PSR sort gate)

{"Residue String": "QVQIVESGGGLVQAGGSLRLSCAASGSIFDDYAMGWYRQAPGKERELVAAISSGVSTDYADSVKGRFTISRDNAKNTVYLQMYSLKPEDTAVYYCAADDQYRVTLGYDYWGQGTQVTVSS", "Measured": "low polyreactivity"}
{"Residue String": "QVQLVESGGGLVQAGGSHRLSCAASGSTFEIYAMGWYRQAPGKERELVAAISSGGSTNYADSVKGRFTISRDNAKNSVYLQMNSLKPEDTAVYYCVYAIQFDYWGQGTQVTVSS", "Measured": "low polyreactivity"}
{"Residue String": "QFQLVESGGGLVQAGGSLRLSCAASGFTLRTYAMGWYRQAPGKERELVAAITVSGGTYYADSVKGRFTISRDNAKYTVYLQMNSLKPEDTAVYYCTAKRFGTGFDYWGQGTQVTVSS", "Measured": "low polyreactivity"}
